FYI, the data here is from ChEMBL document CHEMBL1141198.

molecular target: Cathepsin B (Homo sapiens); test: Inhibitory constant against human cathepsin B using Boc-Leu-Lys-Arg-AMC substrate; conditions: read-out: Ki app
pKi: −log10 of the molar value.
The molecules listed here are annotated with their pKi.
outcomeMeasure: pKi

> print(dat)
                             chemicalstring  relationqualifier  readoutnumber
1  N#CCNC(=O)C1(NC(=O)c2ccc(-c3ccc(OC4CCN(CCO)CC4)cc3)cc2)CCCCC1                  =           6.19
2  CN1CCN(Cc2nc(-c3ccc(C(=O)NC4(C(=O)NCC#N)CCCCC4)cc3)cs2)CC1                  =           5.82
3  CN1CCC(C)(c2nc(-c3ccc(C(=O)NC4(C(=O)NCC#N)CCCCC4)cc3)cs2)CC1                  =           5.96
4  CN1CCC(c2nc(-c3ccc(C(=O)NC4(C(=O)NCC#N)CCCCC4)cc3)cs2)CC1                  =           5.85
5  CC(C)C[C@@H](NC(=O)OCc1ccccc1)C(=O)NCC#N                  <           3.82
6  CC(C)(C)C[C@H](NC(=O)OCc1ccccc1)C(=O)NCC#N                  =           4.20
7  N#CCNC(=O)C1(NC(=O)c2ccc(-c3ccccc3)cc2)CCCCC1                  =           5.89
8  CC(C)(C)N1CCN(c2nc(-c3ccc(C(=O)NC4(C(=O)NCC#N)CCCCC4)cc3)cs2)CC1                  =           6.04
9  CN(C)c1ccc(-c2ccc(C(=O)NC3(C(=O)NCC#N)CCCCC3)cc2)cc1                  =           6.17

====

The molecules listed here are annotated with their log10(Ki).
molecular target: Cathepsin S (Homo sapiens, UniProt P25774); assay: Inhibitory constant against human cathepsin S using Z-Val-Val-Arg-AMC substrate; conditions: read-out: Ki app
Sequence (P25774 whole entry): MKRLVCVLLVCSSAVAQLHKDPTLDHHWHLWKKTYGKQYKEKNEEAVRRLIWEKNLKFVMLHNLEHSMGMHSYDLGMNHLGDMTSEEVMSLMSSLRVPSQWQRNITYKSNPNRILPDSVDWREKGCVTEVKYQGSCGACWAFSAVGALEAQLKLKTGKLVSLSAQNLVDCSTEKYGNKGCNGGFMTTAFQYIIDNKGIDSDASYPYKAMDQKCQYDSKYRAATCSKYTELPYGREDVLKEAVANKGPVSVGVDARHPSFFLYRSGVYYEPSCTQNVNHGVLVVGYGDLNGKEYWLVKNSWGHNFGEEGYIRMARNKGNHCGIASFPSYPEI
outcomeMeasure: log10(Ki) (log10 of the value in µM)

> print(dat)
                                    molecule  readoutnumber
 1  N#CCNC(=O)C1(NC(=O)c2ccc(-c3ccccc3)cc2)CCCCC1           0.94
 2  CN1CCCC(Oc2ccc(-c3ccc(C(=O)NC4(C(=O)NCC#N)CCCCC4)cc3)cc2)C1 (centres undefined)           1.11
 3  COCCN1CCC(Oc2ccc(-c3ccc(C(=O)NC4(C(=O)NCC#N)CCCCC4)cc3)cc2)CC1           0.79
 4  N#CCNC(=O)C1(NC(=O)c2cccc(-c3ccccc3)c2)CCCCC1           0.28
 5  CC(C[C@H](NC(=O)OCc1ccccc1)C(=O)NCC#N)C(F)(F)F (some centres undefined)          -0.40
 6      N#CCNC(=O)C1(NC(=O)OCc2ccccc2)CCCCC1           1.49
 7  CC(C)C[C@](C)(NC(=O)OCc1ccccc1)C(=O)NCC#N           0.62
 8      N#CCNC(=O)C1(NC(=O)CCc2ccccc2)CCCCC1           1.53
 9  CC(C)C[C@@H](NC(=O)OCc1ccccc1)C(=O)NCC#N           1.13
10  CN1CCN(Cc2nc(-c3ccc(C(=O)NC4(C(=O)NCC#N)CCCCC4)cc3)cs2)CC1           1.62
11  N#CCNC(=O)C1(NC(=O)c2ccc(-c3csc(CN4CCOCC4)n3)cc2)CCCCC1          -0.60
12  CN1CCC(C)(c2nc(-c3ccc(C(=O)NC4(C(=O)NCC#N)CCCCC4)cc3)cs2)CC1           1.48
13  N#CCNC(=O)C1(NC(=O)c2ccc(-c3csc(N4CCC(N5CCOCC5)CC4)n3)cc2)CCCCC1           0.81
14  CN(C)c1ccc(C(=O)NC2(C(=O)NCC#N)CCCCC2)cc1           1.54
15  CN1CCN(c2ccc(C(=O)NC3(C(=O)NCC#N)CCCCC3)cc2)CC1           1.20
16  N#CCNC(=O)C1(NC(=O)c2ccc(-c3csc(N4CC[C@@H](N)C4)n3)cc2)CCCCC1           0.65
17  N#CCNC(=O)C1(NC(=O)c2ccc(-c3csc(N4CCN(C5CCOCC5)CC4)n3)cc2)CCCCC1           1.23
18   C#Cc1ccc(C(=O)NC2(C(=O)NCC#N)CCCCC2)cc1           1.18
19  N#CCNC(=O)C1(NC(=O)c2ccc(-c3ccc(S(=O)(=O)N4CCNCC4)cc3)cc2)CCCCC1           0.96
20  CN1CCC(Oc2ccc(-c3ccc(C(=O)NC4(C(=O)NCC#N)CCCCC4)cc3)cc2)CC1           1.08
21  CC(C)(C)N1CCN(c2ccc(-c3ccc(C(=O)NC4(C(=O)NCC#N)CCCCC4)cc3)cc2)CC1           0.90
22  CN1CCN(C(=O)c2ccc(C(=O)NC3(C(=O)NCC#N)CCCCC3)cc2)CC1           2.04
23  N#CCNC(=O)C1(NC(=O)c2ccc(N3CCOCC3)cc2)CCCCC1           1.62
24  CN1CCC[C@H]1COc1ccc(-c2ccc(C(=O)NC3(C(=O)NCC#N)CCCCC3)cc2)cc1           1.00
25  CN1CCN(c2nc(-c3ccc(C(=O)NC4(C(=O)NCC#N)CCCCC4)cc3)cs2)CC1           1.67
26     CCCC[C@H](NC(=O)OCc1ccccc1)C(=O)NCC#N          -0.07
27  N#CCNC(=O)C1(NC(=O)c2ccc(-c3ccc(S(=O)(=O)N4CCN(CC(F)(F)F)CC4)cc3)cc2)CCCCC1           0.74
28  CN1CCC(N(C)c2ccc(-c3ccc(C(=O)NC4(C(=O)NCC#N)CCCCC4)cc3)cc2)C1 (centres undefined)           0.94

====

biological target: Procathepsin L (Homo sapiens); assay: Inhibitory constant against human cathepsin L using Z-Phe-Arg-AMC substrate; settings: read-out: Ki app
Sequence (P07711 whole entry): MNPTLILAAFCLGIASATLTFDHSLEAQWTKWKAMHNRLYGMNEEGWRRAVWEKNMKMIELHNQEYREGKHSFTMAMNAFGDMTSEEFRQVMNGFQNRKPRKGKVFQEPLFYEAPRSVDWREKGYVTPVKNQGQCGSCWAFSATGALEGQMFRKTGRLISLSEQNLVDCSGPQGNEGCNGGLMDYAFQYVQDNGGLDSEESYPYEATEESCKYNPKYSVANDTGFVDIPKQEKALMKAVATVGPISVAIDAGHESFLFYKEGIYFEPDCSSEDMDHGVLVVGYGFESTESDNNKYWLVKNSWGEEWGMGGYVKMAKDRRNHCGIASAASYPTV
The compounds listed here are annotated with their log10 Ki.
outcomeMeasure: log10 Ki (log10 of the value in µM)

> print(dat)
                                    compound  outcomemeasure  readoutnumber
 1  N#CCNC(=O)C1(NC(=O)c2ccc(-c3ccccc3)cc2)CCCCC1        log10 Ki           1.36
 2  N#CCNC(=O)C1(NC(=O)c2ccc(-c3csc(OC4CCNCC4)n3)cc2)CCCCC1        log10 Ki           1.04
 3  CN(C)c1ccc(C(=O)NC2(C(=O)NCC#N)CCCCC2)cc1        log10 Ki           1.68
 4     N#CCNC(=O)C1(NC(=O)c2ccc(Br)s2)CCCCC1        log10 Ki           0.77
 5  N#CCNC(=O)C1(NC(=O)c2ccc(-c3csc(N4CCC(N5CCCCC5)CC4)n3)cc2)CCCCC1        log10 Ki           0.94
 6  COCCN1CCC(Oc2ccc(-c3ccc(C(=O)NC4(C(=O)NCC#N)CCCCC4)cc3)cc2)CC1        log10 Ki           0.08
 7  N#CCNC(=O)C1(NC(=O)c2ccc(-c3ccc(N4CCNCC4)cc3)cc2)CCCCC1        log10 Ki           0.90
 8  CN1CCC(N(C)c2ccc(-c3ccc(C(=O)NC4(C(=O)NCC#N)CCCCC4)cc3)cc2)C1 (centres undefined)        log10 Ki           0.30
 9  CC(C)(C)N1CCN(c2nc(-c3ccc(C(=O)NC4(C(=O)NCC#N)CCCCC4)cc3)cs2)CC1        log10 Ki           0.94
10  N#CCNC(=O)C1(NC(=O)c2ccc(-c3ccc(C4(F)CCNCC4)cc3)cc2)CCCCC1        log10 Ki          -0.05
11  N#CCNC(=O)[C@@H](NC(=O)OCc1ccccc1)c1ccccc1        log10 Ki           1.94
12   CC(C)C[C@H](NC(=O)OCc1ccccc1)C(=O)NCC#N        log10 Ki           0.45
13    N#CCNC(=O)C1(NC(=O)c2cccc(Br)c2)CCCCC1        log10 Ki           0.90
14     CCCC[C@H](NC(=O)OCc1ccccc1)C(=O)NCC#N        log10 Ki           1.57
15  CC(C)(C)C[C@H](NC(=O)OCc1ccccc1)C(=O)NCC#N        log10 Ki           1.36
16  CC(C)(C)N1CCN(c2ccc(-c3ccc(C(=O)NC4(C(=O)NCC#N)CCCCC4)cc3)cc2)CC1        log10 Ki           1.04
17  CN1CCC(c2nc(-c3ccc(C(=O)NC4(C(=O)NCC#N)CCCCC4)cc3)cs2)CC1        log10 Ki           1.18
18  C[C@@H](O)[C@H](NC(=O)OCc1ccccc1)C(=O)NCC#N        log10 Ki           1.15
19  CC(C)N(C)C1CCN(c2nc(-c3ccc(C(=O)NC4(C(=O)NCC#N)CCCCC4)cc3)cs2)CC1        log10 Ki           1.18
20  CN1CCN(c2nc(-c3ccc(C(=O)NC4(C(=O)NCC#N)CCCCC4)cc3)cs2)CC1        log10 Ki           0.78
21  N#CCNC(=O)C1(NC(=O)c2ccc(-c3ccc(OC4CCN(CCO)CC4)cc3)cc2)CCCCC1        log10 Ki           0.96
22  CN1CCC[C@H]1COc1ccc(-c2ccc(C(=O)NC3(C(=O)NCC#N)CCCCC3)cc2)cc1        log10 Ki           0.60
23  CN1CCN(c2ccc(C(=O)NC3(C(=O)NCC#N)CCCCC3)cc2)CC1        log10 Ki           0.98
24  COCCN1CCN(c2nc(-c3ccc(C(=O)NC4(C(=O)NCC#N)CCCCC4)cc3)cs2)CC1        log10 Ki           0.81
25  CN1CCCC(Oc2ccc(-c3ccc(C(=O)NC4(C(=O)NCC#N)CCCCC4)cc3)cc2)C1 (centres undefined)        log10 Ki           0.36
26  N#CCNC(=O)C1(NC(=O)c2cccc(-c3ccccc3)c2)CCCCC1        log10 Ki           1.34
27  CN1CCN(N(C)c2nc(-c3ccc(C(=O)NC4(C(=O)NCC#N)CCCCC4)cc3)cs2)CC1        log10 Ki           0.95
28  CC(C[C@H](NC(=O)OCc1ccccc1)C(=O)NCC#N)C(F)(F)F (some centres undefined)        log10 Ki           1.34
29  CC(C)NC1CCN(c2nc(-c3ccc(C(=O)NC4(C(=O)NCC#N)CCCCC4)cc3)cs2)CC1        log10 Ki           1.08
30  CCCN1CCN(c2ccc(C(=O)NC3(C(=O)NCC#N)CCCCC3)cc2)CC1        log10 Ki           1.26
31  CN(C)C1CCN(c2nc(-c3ccc(C(=O)NC4(C(=O)NCC#N)CCCCC4)cc3)cs2)C1 (centres undefined)        log10 Ki           1.08
32  CN1CCC(C)(c2nc(-c3ccc(C(=O)NC4(C(=O)NCC#N)CCCCC4)cc3)cs2)CC1        log10 Ki           0.88
33  N#CCNC(=O)C1(NC(=O)c2ccc(-c3csc(CN4CCOCC4)n3)cc2)CCCCC1        log10 Ki           0.34
34  N#CCNC(=O)C1(NC(=O)c2ccc(-c3ccc(S(=O)(=O)N4CCN(CC(F)(F)F)CC4)cc3)cc2)CCCCC1        log10 Ki          -0.27
